- System: Rattus norvegicus
- procedure.summary: Effective dose after subcutaneous administration to TPTX rats for 50% reduction of hypercalcemia
- Type: functional
- condition.details: sc
measured.attribute: log10 ED50 (log10 of the value in mg/kg)
All values: log10 ED50 [mg/kg].

- entry.smiles: "O=P(O)(O)C(Cc1nccs1)P(=O)(O)O"
  measured.attribute: "log10 ED50"
  result.number: -0.70
- entry.smiles: "CN(CCCc1ccccc1)CCC(O)(P(=O)(O)O)P(=O)(O)O"
  measured.attribute: "log10 ED50"
  result.number: -3.00
- entry.smiles: "CN(CCCOc1ccccc1)CCC(O)(P(=O)(O)O)P(=O)(O)O"
  measured.attribute: "log10 ED50"
  result.number: -3.30

Input line: I have this compound here, NCCCC(O)(P(=O)(O)O)P(=O)(O)O , and I need its recorded log10 ED50.
Output line: -2.10

Input line: What does the record list as log10 ED50 for O=P(O)(O)C(O)(Cn1cncn1)P(=O)(O)O ?
Output line: -0.22

Input line: Need log10 ED50, item NCCCCC(O)(P(=O)(O)O)P(=O)(O)O
Output line: -1.70

Input line: Fill in: log10 ED50 of Cn1ccnc1CC(O)(P(=O)(O)O)P(=O)(O)O is ___
Output line: -3.22
